activity coefficient overview
Assay: activity coefficient (dimensionless); of the first substance listed, at infinite dilution; xn = mol fraction of the nth substance listed
Conditions: 358.15 K; 101 kPa; Liquid; Chromatography; x1 = 0
Just the number.

>  <compound>
CCc1ccccc1 [ethylbenzene] + COCC[N+]1(C)CCCCC1.O=S(=O)([N-]S(=O)(=O)C(F)(F)F)C(F)(F)F

>  <activity coefficient>
1.94

$$$$
>  <compound>
CCO [ethanol] + COCC[N+]1(C)CCCCC1.O=S(=O)([N-]S(=O)(=O)C(F)(F)F)C(F)(F)F

>  <activity coefficient>
1.24

$$$$

Consider the compound shown here: CCCCCCC [heptane] + COCC[N+]1(C)CCCCC1.O=S(=O)([N-]S(=O)(=O)C(F)(F)F)C(F)(F)F What is its recorded activity coefficient?
18.4

Lookup C1CCCC1 [cyclopentane] + COCC[N+]1(C)CCCCC1.O=S(=O)([N-]S(=O)(=O)C(F)(F)F)C(F)(F)F
5.63
